# test summary: Cytotoxicity, release of lactate dehydrogenase (LDH)
# Type: cell-based, menschlichen
# test conditions: human; HaCat keratinocytes; measure of cytotoxicity, as concentration of the active substance; read-out: LDH-Freisetzung*
parameter measured: CC50

Qu. Identify measured CC50 associated with O=C(O)c1ccccc1O
Ans. > 2000 µg/mL

* * *

# Test system: menschlichen Keratinozyten (HaCat)
# test summary: Inhibition of cell proliferation, neutral red (NR) method
# Assay type: cell-based
# test conditions: Homo sapiens; HaCat keratinocytes; 50% inhibition of cell growth; read-out: NR-Methode *IC50
# Excerpt: Die Zellproliferation der Hautzellen wurde anhand der bekannten Neutralrotmethode untersucht. Die Zellschädigung wurde durch gleichzeitige Untersuchung der Freisetzung eines cytosolischen Enzyms, der Lactatdehydrogenase, zusätzlich bestimmt. In einigen Versuchen wurde auch die DNA-Synthese anhand der Inkorporation von ^3H-Thymidin mituntersucht.
Listing: IC50 of selected compounds
Answer format: numeric, µg/mL implied, no suffix.

compound | experimental target | units | IC50
OCc1ccccc1O [Salicylalkohol, 2-Hydroxybenzylalkohol] | menschlichen Keratinozyten (HaCat) | µg/mL | 780

Qu. Identify measured IC50 associated with O=C(O)/C=C\C(=O)O
Ans. 1700

Qu. Identify measured IC50 associated with O=Cc1ccccc1O
Ans. 34

Qu. Identify measured IC50 associated with O=C(O)/C=C/C(=O)O
Ans. 4900

* * *

# test summary: Cytotoxicity, release of lactate dehydrogenase (LDH)
# Format: cell-based, menschlichen
# test conditions: human, hacat keratinocytes
Listing: CC50 of selected compounds

compound | parameter measured | measured result
O=Cc1ccccc1O | CC50 | > 100 µg/mL
OCc1ccccc1O [Salicylalkohol, 2-Hydroxybenzylalkohol] | CC50 | > 600 µg/mL
C[C@@H]1C[C@H]2[C@@H]3CCC4=CC(=O)C=C[C@]4(C)[C@@]3(F)[C@@H](O)C[C@]2(C)[C@@]1(O)C(=O)CO | CC50 | > 600 µg/mL
O=C(O)/C=C\C(=O)O | CC50 | > 1000 µg/mL

Read the next record carefully.
Qu. Identify measured CC50 associated with O=C(O)/C=C/C(=O)O
Ans. > 10000 µg/mL
